biological target: human MET ECD mutant H (mutations 2, 4) (human) (UniProt P08581); experiment: ELISA, MET ECD in solid phase, mAb 0-50 nM
So I've got a bunch of binders here, and I need their % binding (EMAX) compared to WT MET values.
Numeric answer only, unit % WT MET ECD assumed.

Notebook: 71G2 chimeric llama-human IgG1 mAb (antibody, V domains shown, llama VH on human IgG1 CH1-CH2-CH3, llama VL on human lambda CL) VH: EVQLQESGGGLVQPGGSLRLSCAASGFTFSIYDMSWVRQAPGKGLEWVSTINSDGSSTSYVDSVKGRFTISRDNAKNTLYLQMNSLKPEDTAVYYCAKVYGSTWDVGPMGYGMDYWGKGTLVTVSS VL: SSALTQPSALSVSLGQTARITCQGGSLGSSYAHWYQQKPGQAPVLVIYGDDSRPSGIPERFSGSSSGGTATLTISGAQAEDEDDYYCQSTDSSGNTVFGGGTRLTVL , % binding (EMAX) compared to WT MET read as 40.2

Notebook: 71D6 chimeric llama-human IgG1 mAb (antibody, V domains shown, llama VH on human IgG1 CH1-CH2-CH3, llama VL on human lambda CL) VH: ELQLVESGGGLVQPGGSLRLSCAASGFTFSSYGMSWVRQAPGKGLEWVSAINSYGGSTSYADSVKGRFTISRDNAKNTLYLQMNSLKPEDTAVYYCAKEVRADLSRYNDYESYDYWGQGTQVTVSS VL: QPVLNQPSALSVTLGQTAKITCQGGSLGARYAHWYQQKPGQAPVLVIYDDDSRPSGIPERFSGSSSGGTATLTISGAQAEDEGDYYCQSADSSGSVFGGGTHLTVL , % binding (EMAX) compared to WT MET read as 38.6

Notebook: 71A3 chimeric llama-human IgG1 mAb (antibody, V domains shown, llama VH on human IgG1 CH1-CH2-CH3, llama VL on human lambda CL) VH: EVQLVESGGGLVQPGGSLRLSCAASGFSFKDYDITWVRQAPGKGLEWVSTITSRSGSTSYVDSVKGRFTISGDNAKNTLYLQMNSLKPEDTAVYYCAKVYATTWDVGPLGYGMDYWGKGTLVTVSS VL: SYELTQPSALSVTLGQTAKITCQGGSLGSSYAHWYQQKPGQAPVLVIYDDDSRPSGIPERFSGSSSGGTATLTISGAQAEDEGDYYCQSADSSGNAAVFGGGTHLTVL , % binding (EMAX) compared to WT MET read as 76.7

Notebook: 71D4 chimeric llama-human IgG1 mAb (antibody, V domains shown, llama VH on human IgG1 CH1-CH2-CH3, llama VL on human lambda CL) VH: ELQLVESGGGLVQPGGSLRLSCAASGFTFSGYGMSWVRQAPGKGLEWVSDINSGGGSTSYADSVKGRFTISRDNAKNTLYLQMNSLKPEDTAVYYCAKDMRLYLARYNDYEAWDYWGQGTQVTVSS VL: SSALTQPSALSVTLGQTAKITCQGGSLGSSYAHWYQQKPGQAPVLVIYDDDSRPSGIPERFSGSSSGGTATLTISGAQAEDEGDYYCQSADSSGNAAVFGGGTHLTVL , % binding (EMAX) compared to WT MET read as 58.7
